Target: bacterial collagenase type VII
Test: Collagenase activity assay (FALGPA substrate)
Conditions: tested 10 nmol/L to 10 μmol/L; no significant effect
Description: Enzymatic assay of collagenase was performed using FALGPA (Sigma‐Aldrich Corp, St. Louis, MO) as substrate, according to the manufacturer's recommendations. Briefly, proteolysis of 1 mmol/L FALGPA by 2 U/mL bacterial collagenase type VII (Sigma‐Aldrich Corp, St. Louis, MO) in reaction buffer (50 mmol/L Tricine; 10 mmol/L CaCl2; 400 mmol/L NaCl) was monitored spectrophotometrically (345 nm) for 5 minutes, in the presence of CM352, phenanthroline, or vehicle.
pIC50: −log10 of the molar value.
Assay endpoint: pIC50

Query string: Using the record for CNC(=O)c1ccc(Oc2ccc(S(=O)(=O)[C@]3(C(=O)NO)CCC4(CCNCC4)C3)cc2)cc1 , report its pIC50.
Result string: < 5.00

---

Assay: Pharmacokinetics of CM352 in rats after intravenous administration
Assay type: in vivo
Conditions: plasma; rat, 1 mg/kg intravenous, n=3; read-out: Norm. Cl (normalized clearance) (converted)
Assay endpoint: clearance (mL/min/kg)
Numbers only, in mL/min/kg.

Query string: Using the record for CNC(=O)c1ccc(Oc2ccc(S(=O)(=O)[C@]3(C(=O)NO)CCC4(CCNCC4)C3)cc2)cc1 , report its clearance.
Result string: 7

---

Assay: Plasma protein binding
Format: in vitro ADME
Conditions: rat, read-out: Plasma prot binding (% unbound)
Assay endpoint: fraction unbound

Query string: Using the record for CNC(=O)c1ccc(Oc2ccc(S(=O)(=O)[C@]3(C(=O)NO)CCC4(CCNCC4)C3)cc2)cc1 [CM352] , report its fraction unbound.
Result string: 0.4

---

Protein target, amino acids: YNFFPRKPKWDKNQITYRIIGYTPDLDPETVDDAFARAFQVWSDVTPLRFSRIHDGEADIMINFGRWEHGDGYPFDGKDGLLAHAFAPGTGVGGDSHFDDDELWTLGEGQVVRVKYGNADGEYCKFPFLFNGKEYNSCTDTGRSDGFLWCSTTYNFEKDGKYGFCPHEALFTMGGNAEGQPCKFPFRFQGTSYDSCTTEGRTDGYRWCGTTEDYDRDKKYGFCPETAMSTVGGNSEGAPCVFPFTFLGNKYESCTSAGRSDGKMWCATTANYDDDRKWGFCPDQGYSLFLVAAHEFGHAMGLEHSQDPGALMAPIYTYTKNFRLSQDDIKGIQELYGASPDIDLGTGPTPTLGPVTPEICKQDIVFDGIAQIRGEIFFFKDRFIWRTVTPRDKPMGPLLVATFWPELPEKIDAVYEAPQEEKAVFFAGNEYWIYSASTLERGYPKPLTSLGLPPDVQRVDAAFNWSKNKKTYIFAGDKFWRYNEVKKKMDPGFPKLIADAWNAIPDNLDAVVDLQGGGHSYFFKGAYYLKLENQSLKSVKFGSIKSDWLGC
Assay endpoint: IC50 (nM)
One number for each entry, in nM.

Query string: Using the record for CNC(=O)c1ccc(Oc2ccc(S(=O)(=O)[C@]3(C(=O)NO)CCC4(CCNCC4)C3)cc2)cc1 [CM352] , report its IC50.
Result string: 8.4

---

Target: MMP‐7 (Homo sapiens, UniProt P09237)
Construct: GenScript (contract testing)
Sequence (P09237 95-267): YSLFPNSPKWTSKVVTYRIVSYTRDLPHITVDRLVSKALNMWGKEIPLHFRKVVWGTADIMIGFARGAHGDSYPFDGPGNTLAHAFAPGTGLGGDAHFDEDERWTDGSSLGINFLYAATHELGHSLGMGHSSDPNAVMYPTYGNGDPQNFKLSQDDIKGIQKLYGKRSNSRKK
Test: MMP enzyme activity assay
Assay type: biochemical
Details: read-out: MMP Inhibitory Activity (IC50), MMP‐7
Assay endpoint: IC50 (µM)
Numbers only, in µM.

Query string: Using the record for CNC(=O)c1ccc(Oc2ccc(S(=O)(=O)[C@]3(C(=O)NO)CCC4(CCNCC4)C3)cc2)cc1 , report its IC50.
Result string: 16
